# Tested on: KM12 colon
# Test details: NCI-60 one-dose screen, 48 h
# Test settings: 10 µM unless noted
About 83,000 compounds went through this panel and 20% of them were active in at least one assay; those are over-represented in the sample as a whole. Active and inactive are the calls of the source. Rule for the calls: active = growth percent below 10; inactive = the rest.
Mark one answer only. Choices: 1 for active, -1 for inactive

// known answers, use as guide
Cc1cc(N2CCCCC2)nc(NC2CCCC(Nc3ccnc4cc(Cl)ccc34)C2)n1 (stereo not given) : 1
Cn1cc(C(=O)c2nc(-c3c[nH]c4ccc(Br)cc34)no2)c2cc(F)ccc21 : -1
Cc1nc2ccccc2n1C(=O)C[C@@H]1NC(=S)NC1=O : -1
C#Cc1cccc(NC(=O)c2ccccc2NC(=O)CCl)c1 : -1

query: Look up the recorded call for CCOc1cc2ncc(C#N)c(Nc3ccc(F)c(Cl)c3)c2cc1NC(=O)CC1CCSS1 (stereo not given) in this test.
result: 1

---

# Tested on: OVCAR-8 ovarian
# Test details: NCI-60 one-dose screen, 48 h (100 = growth as untreated, 0 = no growth, -100 = all killed)
# Test settings: 10 µM unless noted
The panel holds about 83,000 compounds, 20% with a hit somewhere; the sample as a whole holds those more often.
Label key: Condition met means growth under 70%; Condition not met means growth of 70% or more.

See these solved cases before continuing.
COc1ccc(C2CC(c3ccc4ccccc4c3)=NN2/C=C2\SC(=S)N(NC(=O)Cc3ccccc3Nc3c(Cl)cccc3Cl)C2=O)cc1 (centres undefined) : Condition met
N#Cc1cnn(-c2nc3c(Cl)cccc3s2)c1N : Condition not met
COc1cc(-c2nn(-c3ccc(C(=O)O)cc3)cc2C(=O)O)ccc1O : Condition not met
CCCn1c(=O)[nH]c(N)c([C@H]2c3ccccc3Oc3[nH]c(=O)n(CCC)c(=O)c32)c1=O : Condition not met

query: Threshold test, growth < 70%: OC(c1cc2cc(Cl)c(Cl)cc2c2cc(C(F)(F)F)ccc12)C1CCCCN1 (centres undefined)
result: Condition met

query: Consider COc1cc(/C=C/C(=O)c2ccc(O)c(CN3CCN(c4cc5c(cc4F)c(=O)c(C(=O)O)cn5C4CC4)CC3)c2)cc(OC)c1OC . Does its growth lie strictly below 70%?
result: Condition met

query: Confirm or reject: growth of CN1CCN(c2nc(NCCCCNc3ccnc4cc(Cl)ccc34)c3ccccc3n2)CC1 lies strictly below 70%
result: Condition met

query: Find out if reported growth for Nc1ccc(-c2cc3c(Nc4ccc(Oc5cccc(C(F)(F)F)c5)c(Cl)c4)ncnc3s2)cc1 is less than 70%
result: Condition not met

---

# System: CCRF-CEM leukemia
# Test details: NCI-60 one-dose screen, 48 h
# Test settings: 10 µM unless noted
Compounds without any hit were thinned out: in the full panel of roughly 83,000, 20% have a hit. Calls of active or inactive are those of the source. How the source made its calls: active means growth percent below 10; inactive means the rest.
Choose the fitting class; nothing outside 1 = active, -1 = inactive is accepted.

Example entries and their recorded answers appear below.
O=C(Cc1ccc(/C=C/C(=O)c2ncc[nH]2)cc1)Nc1ccc(F)cc1 : 1
Cc1oc(-c2ccc(Cl)cc2Cl)cc1C(=O)Nc1nccs1 : -1
COc1cc2c(cc1O)CC[C@@H]1[C@@H]2CC[C@]2(C)[C@@H](NCCN(C)C)CC[C@@H]12 : 1

query: Given Cc1cc2c3ccccc3ccc2[n+]2ccccc12 , state the outcome it received in this test.
result: -1

query: How did this test come out for CCCOc1cc2ccccc2cc1C(=O)Nc1nc(N)c2c(ccc3nccc32)[nH]1 ?
result: 1

query: Call for entry O=C(C(=O)c1ccc2c(c1)OCO2)c1ccc2c(c1)OCO2 :
result: -1
